species on record: Rattus norvegicus; assay: DrugMatrix - Regimen: Daily Repeat; assay type: toxicity, organism-based, Sprague-Dawley; set-up: regimen Daily Repeat, gender Male, age 6-8 weeks; conditions: in vivo, po, 1500 mg/kg, 72 h, tissue Plasma, route oral GAVAGE, dose level High, time 3 day, vehicle .5 % CMC
In this section we review reported ASPARTATE AMINOTRANSFERASE values for a set of compounds.

- Compound: "O=C(O)CCc1nc(-c2ccccc2)c(-c2ccccc2)o1 [OXAPROZIN]"
  ASPARTATE AMINOTRANSFERASE [u/L]: 86.67
- Compound: "COc1ccc(Cl)cc1C(=O)NCCc1ccc(S(=O)(=O)NC(=O)NC2CCCCC2)cc1 [GLYBURIDE]"
  ASPARTATE AMINOTRANSFERASE [u/L]: 50
- Compound: "Cc1ccc(S(=O)(=O)NC(=O)NN2CCCCCC2)cc1 [TOLAZAMIDE]"
  ASPARTATE AMINOTRANSFERASE [u/L]: 69
- Compound: "CC[C@H]1OC(=O)[C@H](C)[C@@H](O[C@H]2C[C@@](C)(OC)[C@@H](O)[C@H](C)O2)[C@H](C)[C@@H](O[C@@H]2O[C@H](C)C[C@H](N(C)C)[C@H]2O)[C@](C)(O)C[C@@H](C)C(=O)[C@H](C)[C@@H](O)[C@]1(C)O [ERYTHROMYCIN]"
  ASPARTATE AMINOTRANSFERASE [u/L]: 86.33
- Compound: "COc1cc(/C=C/C(=O)O)ccc1O [FERULATE]"
  ASPARTATE AMINOTRANSFERASE [u/L]: 102.67

----------
species: Rattus norvegicus; test: DrugMatrix - Regimen: Daily Repeat; format: toxicity, organism-based, Sprague-Dawley; parameters: regimen Daily Repeat, gender Male, age 6-8 weeks; details: in vivo, po, 0 mg/kg, 72 h, tissue Blood, route oral GAVAGE, dose level Control, time 3 day, vehicle .5 % CMC

- Molecule: "Cl.NC[C@H]1CC[C@H](C(=O)Oc2ccc(CCC(=O)O)cc2)CC1 [CETRAXATE HYDROCHLORIDE]"
  HEMOGLOBIN / G/DL: 12.75
- Molecule: "O=C1c2ccccc2C(=O)C1c1ccccc1"
  HEMOGLOBIN / G/DL: 14.1
- Molecule: "NC(=O)CN1CCCC1=O"
  HEMOGLOBIN / G/DL: 13.82
- Molecule: "CCN(CC)CCNC(=O)c1cc(Cl)c(N)cc1OC [METOCLOPRAMIDE]"
  HEMOGLOBIN / G/DL: 13.98
- Molecule: "NCC(CC(=O)O)c1ccc(Cl)cc1 (stereo unspecified)"
  HEMOGLOBIN / G/DL: 13.68
- Molecule: "NC(=O)NC(=O)Cc1ccccc1 [PHENACEMIDE]"
  HEMOGLOBIN / G/DL: 12.78
- Molecule: "CC(C)Cc1ccc([C@H](C)C(=O)O)cc1"
  HEMOGLOBIN / G/DL: 13.62
- Molecule: "CCN1CCN(c2cc3c(cc2F)c(=O)c(C(=O)O)cn3C2CC2)CC1"
  HEMOGLOBIN / G/DL: 13.98
- Molecule: "CCN1C[C@]2(COC)[C@H](O)C[C@H](OC)[C@@]34[C@@H]5C[C@@]6(O)[C@H](OC(=O)c7ccccc7)[C@@H]5[C@@](OC(C)=O)([C@@H]([C@H](OC)[C@H]23)[C@@H]14)[C@@H](O)[C@@H]6OC"
  HEMOGLOBIN / G/DL: 14.1
- Molecule: "CC(C)(C#N)c1cc(Cn2cncn2)cc(C(C)(C)C#N)c1"
  HEMOGLOBIN / G/DL: 13.8
- Molecule: "CN(C)CCC=C1c2ccccc2COc2ccccc21 [DOXEPIN]"
  HEMOGLOBIN / G/DL: 14.92

----------
species on record: Rattus norvegicus; test: DrugMatrix - Regimen: Daily Repeat; format: toxicity, organism-based, Sprague-Dawley; set-up: regimen Daily Repeat, gender Male, age 6-8 weeks; settings: in vivo, po, 0 mg/kg, 72 h, tissue Plasma, route oral GAVAGE, dose level Control, time 3 day, vehicle 100 % WATER
Could you label it yes if measured ALKALINE PHOSPHATASE is 400 u/L or higher, and no otherwise?

- Compound: "CCN(CC)C(=S)SSC(=S)N(CC)CC"
  Classification: "yes"
- Compound: "Cc1cn([C@H]2C=C[C@@H](CO)O2)c(=O)[nH]c1=O"
  Classification: "no"
- Compound: "CCC1(c2ccccc2)C(=O)NC(=O)NC1=O"
  Classification: "no"
- Compound: "Cc1cc(C(C)(C)C)c(O)c(C)c1CC1=NCCN1"
  Classification: "no"
- Compound: "C[N+](C)(C)CCOC(N)=O.[Cl-]"
  Classification: "no"
- Compound: "NN [HYDRAZINE]"
  Classification: "no"

----------
Reported EOSINOPHIL values for a set of compounds
organism: Rattus norvegicus; experiment: DrugMatrix - Regimen: Daily Repeat; format: toxicity, organism-based, Sprague-Dawley; design: regimen Daily Repeat, gender Male, age 6-8 weeks; conditions: in vivo, iv, 0 mg/kg, 72 h, tissue Blood, dose level Control, time 3 day, vehicle 100 % SALINE

- Smiles data: "Cc1c(N)nc([C@H](CC(N)=O)NC[C@H](N)C(N)=O)nc1C(=O)N[C@H](C(=O)N[C@H](C)[C@@H](O)[C@H](C)C(=O)N[C@H](C(=O)NCCc1nc(-c2nc(C(=O)NCCC[S+](C)C)cs2)cs1)[C@@H](C)O)[C@@H](O[C@@H]1O[C@@H](CO)[C@@H](O)[C@H](O)[C@@H]1O[C@H]1O[C@H](CO)[C@@H](O)[C@H](OC(N)=O)[C@@H]1O)c1c[nH]cn1.[Br-]"
  EOSINOPHIL / %: 0.33
- Smiles data: "CO[C@@]12[C@H](COC(N)=O)C3=C(C(=O)C(C)=C(N)C3=O)N1C[C@@H]1N[C@@H]12"
  EOSINOPHIL / %: 0
- Smiles data: "COC(=O)C[C@](O)(CCC(C)(C)O)C(=O)O[C@@H]1C(OC)=C[C@]23CCCN2CCc2cc4c(cc2[C@H]13)OCO4"
  EOSINOPHIL / %: 0.17
- Smiles data: "CC(=O)[C@]1(O)Cc2c(O)c3c(c(O)c2[C@@H](O[C@H]2C[C@H](N)[C@H](O)[C@H](C)O2)C1)C(=O)c1ccccc1C3=O"
  EOSINOPHIL / %: 1.67

----------
Quick reference: PLATELET COUNT of the listed items.
species: Rattus norvegicus; assay: DrugMatrix - Regimen: Daily Repeat; type: toxicity, organism-based, Sprague-Dawley; design: regimen Daily Repeat, gender Male, age 6-8 weeks; conditions: in vivo, po, 0 mg/kg, 120 h, tissue Blood, route oral GAVAGE, dose level Control, time 5 day, […]
Property name: PLATELET COUNT (x10E3/uL)

- Smiles data: "CCC(C)(C)C(=O)O[C@H]1C[C@@H](C)C=C2C=C[C@H](C)[C@H](CC[C@@H]3C[C@@H](O)CC(=O)O3)[C@H]21"
  Property name: "PLATELET COUNT"
  Experimental value: 1231.5
- Smiles data: "CC(C)(c1ccc(O)cc1)c1ccc(O)cc1"
  Property name: "PLATELET COUNT"
  Experimental value: 1275.33
- Smiles data: "COC(=O)Nc1nc2ccc(C(=O)c3ccccc3)cc2[nH]1"
  Property name: "PLATELET COUNT"
  Experimental value: 883.83
- Smiles data: "Oc1ncnc2[nH]ncc12"
  Property name: "PLATELET COUNT"
  Experimental value: 1143.17

----------
species on record: Rattus norvegicus; test: DrugMatrix - Regimen: Daily Repeat; type: toxicity, organism-based, Sprague-Dawley; parameters: regimen Daily Repeat, gender Male, age 6-8 weeks; conditions: in vivo, po, 0 mg/kg, 72 h, tissue Plasma, route oral GAVAGE, dose level Control, time 3 day, vehicle 100 % WATER
Quick list: ASPARTATE AMINOTRANSFERASE per entry.

- Compound: "CCN(CC)C(=S)SSC(=S)N(CC)CC"
  ASPARTATE AMINOTRANSFERASE (u/L): 106.17
- Compound: "C1CCN2C[C@@H]3C[C@@H](CN4CCCC[C@@H]34)[C@H]2C1"
  ASPARTATE AMINOTRANSFERASE (u/L): 81.83
- Compound: "Cc1cn([C@H]2C=C[C@@H](CO)O2)c(=O)[nH]c1=O"
  ASPARTATE AMINOTRANSFERASE (u/L): 87.5
- Compound: "Cc1cc(C(C)(C)C)c(O)c(C)c1CC1=NCCN1"
  ASPARTATE AMINOTRANSFERASE (u/L): 77.33
- Compound: "NN [HYDRAZINE]"
  ASPARTATE AMINOTRANSFERASE (u/L): 103.17
- Compound: "CN1C(=O)OC(C)(C)C1=O"
  ASPARTATE AMINOTRANSFERASE (u/L): 66
- Compound: "CCC1(c2ccccc2)C(=O)NC(=O)NC1=O"
  ASPARTATE AMINOTRANSFERASE (u/L): 84
- Compound: "CC(Cl)(Cl)Cl"
  ASPARTATE AMINOTRANSFERASE (u/L): 81.83
- Compound: "C[N+](C)(C)CCOC(N)=O.[Cl-]"
  ASPARTATE AMINOTRANSFERASE (u/L): 87.5
